# Tested on: MDA-MB-468 breast
# assay-text: NCI tumour cell line growth inhibition, 48 h
reported-metric: TGI (µM)
Value expressed in µM; do not type the unit.

Prompt: Which TGI is reported for this compound? "O=C(/C=C/c1ccc([N+](=O)[O-])o1)NNC(=O)c1cc2ccccc2cc1O"
Response: 3.59

Prompt: Which TGI is reported for this compound? "CC1=CC[C@@H]2C(C)(C)[C@@H](O)CC[C@@]2(C)[C@@H]1COc1ccc2ccc(=O)oc2c1"
Response: 15

Prompt: Which TGI is reported for this compound? "O=[N+]([O-])/C=C\c1ccc2c(c1)OCO2"
Response: 5.82

Prompt: Which TGI is reported for this compound? "CC/C=C\C[C@H](O)C/C=C1/C(=O)C=C[C@@H]1C/C=C\CCCC(N)=O"
Response: 2.86

Prompt: Which TGI is reported for this compound? "CCc1ccc(C2=C(O)C(=O)C(c3ccc(CC)cc3)=C(O)C2=O)cc1"
Response: 6.26

Prompt: Which TGI is reported for this compound? "CN(C)CCNc1cccc2sc3ccc(O)cc3c(=O)c12"
Response: 4.56

Prompt: Which TGI is reported for this compound? "Cc1ccc(-c2cc3nc(-c4ccccc4)nc(C(Cl)Cl)n3n2)cc1"
Response: 1.31

----------
reported-metric: GI50

Prompt: Missing value: GI50, MDA-MB-468 breast, entry CCN(CC)CC(C)Nc1ccc(C)c2sc3ccccc3c(=O)c12 (configuration not stated) . Fill in?
Response: 2570 nM

Prompt: Missing value: GI50, MDA-MB-468 breast, entry C=C(CNCCO)[C@@H]1CC[C@]2(CO)CC[C@]3(C)[C@H](CC[C@@H]4[C@@]5(C)CCC(NCCc6ccc(O)cc6)C(C)(C)[C@@H]5CC[C@]43C)[C@@H]12 (some centres not stated) . Fill in?
Response: 782 nM

Prompt: Missing value: GI50, MDA-MB-468 breast, entry "CCN(CC)C(=S)SSC1CCCCC1" . Fill in?
Response: 19400 nM

Prompt: Missing value: GI50, MDA-MB-468 breast, entry "CN(C)CCNc1cccc2sc3ccc(O)cc3c(=O)c12" . Fill in?
Response: 1960 nM

Prompt: Missing value: GI50, MDA-MB-468 breast, entry "COc1ccc(-c2cn3ccnc3c(-c3ccc4ncn(C5CCCCC5)c4c3)n2)cc1" . Fill in?
Response: 863 nM

Prompt: Missing value: GI50, MDA-MB-468 breast, entry "O=C(Nc1ccc(Br)cc1)c1cc(Br)cc(Br)c1O" . Fill in?
Response: 2320 nM

Prompt: Missing value: GI50, MDA-MB-468 breast, entry CC(=O)Oc1ccc2c(c1)CC[C@@H]1C2[C@@H](O[N+](=O)[O-])C[C@@]2(C)C1CC[C@@H]2O (some centres not stated) . Fill in?
Response: 22500 nM
